B1: library; a variant is named by its letters at N, in order (parent)
chain: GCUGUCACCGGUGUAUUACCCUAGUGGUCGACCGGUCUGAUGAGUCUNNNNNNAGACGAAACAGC

Variants of: B1
Assay details: FACS-Seq fitted mean relative fluorescence mCherry/BFP without ligand (log10 relative fluorescence); ligand: hypoxanthine (xanthine aptamer); higher = higher reporter protein expression
Test settings: HEK293T, ligand present: no
Classify by measured FACS-Seq fitted mean (log10): class 1 if it is equal to or exceeds 0.2, class 0 if it is smaller.

Changes	Label
UGUCCC	class 1

Request: Please tell me: is the variant `AAAGAG` at or over 0.2 in terms of FACS-Seq fitted mean (log10)?
Response: class 0

Request: Thanks! And `GUAGUA` ?
Response: class 1

Request: Thanks! And `AGCAAG` ?
Response: class 1

Request: Thanks! And `GGAGGU` ?
Response: class 1

Request: Thanks! And `UCCGGG` ?
Response: class 0
